Ref: PubChem BioAssay (NCI)

system: A498 renal; test: NCI tumour cell line growth inhibition, 48 h
A collection of compounds and their measured TGI

O=C(Nc1ccc2c(c1)OCO2)C(=O)c1c[nH]c2cc(F)ccc12 | 16.7 µM
COc1ccc2nc3n(c2c1)C(c1c(Cl)cccc1Cl)SC3 (stereo unspecified) | > 100 µM
COc1ccc2c(c1)C(N)=C(Cc1ccncc1)C2=O | > 100 µM
N#Cc1c(N)c(C#N)c2c(c1-c1ccc(Cl)cc1)COc1ccccc1-2 | 37.7 µM
CC(C)CN(CC#N)CC(C)C | > 100 µM

// switching to the query compound
Query: Provide the documented TGI with A498 renal as the system for `CC(=O)O/N=C(Cl)/C(Cl)=N/OC(C)=O`
Result: > 100 µM

----------
test system: MALME-3M melanoma; assay: NCI tumour cell line growth inhibition, 48 h
A collection of compounds and their measured TGI

Answered examples (3):
Oc1cc(CN2COc3ccccc32)c(O)cc1CNC1CCCCC1 | 38.2 µM
CC(=O)ON(C(C)=O)C1C(COC(c2ccccc2)(c2ccccc2)c2ccccc2)OC2OC3(CCCC3)OC21 (stereo unspecified) | > 100 µM
Cc1c2c(ccc3ccccc32)c[n+]2ccccc12 | 6.98 µM

Query: # query: TGI of entry `O=C(O)c1nccnc1C(=O)O`
Result: > 100 µM

Query: # repeat for O=C(c1ccccc1)c1c(CC(O)c2ccccc2)n(C(=O)c2ccccc2)c2ccccc12 (stereo unspecified)
Result: > 100 µM

----------
system: PC-3 prostate; assay: NCI tumour cell line growth inhibition, 48 h; in the data active means GI50 below about 0.43 µM; inactive means the rest
Respond only with the outcome that fits, drawn from active, inactive

Consider the following illustrative entries.
COc1ccc2c(c1)C(=O)c1c-2n(CCCN)c(=O)c2cc(OC)c(OC)cc12 | active
CCOC(=O)c1cc(-c2ccc(OC)c(OC)c2)[nH]c1N/N=C/c1c(Cl)cccc1Cl | inactive
O=C(Nc1ccc2c(c1)OCO2)C(=O)c1c[nH]c2cc(F)ccc12 | inactive
CCc1nc2cc(/C=C/C(=O)NO)ccc2c(=O)n1CCc1ccc(F)cc1 | inactive

Shift focus to the following entry.
Query: State the result this test recorded for `O=C(Nc1cccnc1)c1ccc2ccc3ccc(C(=O)Nc4cccnc4)nc3c2n1` .
Result: active

----------
system: DU-145 prostate; assay: NCI tumour cell line growth inhibition, 48 h
result-type: GI50

Answered examples (4):
COc1ccc(/C=C2\CC(C)CC3C2=NN(c2ccccc2)C3c2ccc(OC)c(OC)c2)cc1OC (stereo not given) | 4.17 µM
CC(C)(C)NC/C(=C\c1ccccc1)C(=O)c1ccccc1 | 2.68 µM
CCOc1c(C#N)c2c(N)ncnc2n1C1OC(CO)C(O)C1O (stereo not given) | 2.72 µM
CC[C@]12C=CCN3CC[C@@]4(c5ccc(OC)cc5N(C)[C@H]4[C@@](O)(C(=O)OC)[C@@H]1OC(=O)CCC(=O)N[C@H](Cc1c[nH]c4ccccc14)C(=O)OC)[C@@H]32 | 4.44 µM

Query: # query: GI50 of entry `COc1ccc(CNc2cnc3cc(N)cc(N)c3n2)cc1`
Result: 19.4 µM

----------
A collection of compounds and their measured TGI
system: K-562 leukemia; test: NCI tumour cell line growth inhibition, 48 h

Oc1cc(CN2COc3ccccc32)c(O)cc1CNC1CCCCC1 | 52.9 µM
COc1ccc(CNC(=O)[C@H](Cc2ccc(O)cn2)NC(C)=O)cc1 | > 100 µM
CN(O)C(=S)c1ccccc1 | > 100 µM
Cc1ccc(C)n1-n1c(-c2ccccc2)n[nH]c1=O | > 100 µM
Cc1c(C2Cc3ccccc3N2)c2ccccc2n1C (stereo not given) | > 100 µM

Query: Provide the documented TGI with K-562 leukemia as the system for `O=C(Nc1ccc2c(c1)OCO2)C(=O)c1c[nH]c2cc(F)ccc12`
Result: 20.8 µM

Query: # repeat for `Cc1cn2c(/C=C3/C(=O)Nc4ccc(F)cc43)c(C)nc2s1`
Result: > 50 µM

Query: # repeat for `COc1ccc(NC(=O)CCc2cc(C(C)(C)C)n[nH]2)cc1`
Result: > 100 µM

Query: # repeat for C=C1C(=O)OC2C1C(OC(=O)/C(C)=C\C)CC1(CO1)C1C(O)C=C(C)C21O (stereo not given)
Result: > 100 µM

Query: # repeat for CC1=C2[C@H](c3ccccc3)C3C=CC2(c2ccccc23)N(C(=O)C(c2ccccc2)c2ccccc2)C1=O (stereo not given in full)
Result: > 100 µM

Query: # repeat for `C[C@@H]1CC[C@@H]2[C@@H](C)C[C@H]3[C@@H]4C(C)(C)OC(=O)[C@]4(C)C(=O)[C@@]23C1=O`
Result: > 100 µM

Query: # repeat for `O=C(O)c1ccc(Nc2nc3cc(C(F)(F)F)ccc3nc2-c2ccccc2)cc1`
Result: 42.7 µM

Query: # repeat for `CC(=O)Nc1ccc2cc3[nH]c4cc(NC(C)=O)ccc4c3nc2c1`
Result: > 100 µM

Query: # repeat for `O=C(Nn1cnn2c(=O)c3ccccc3nc2c1=O)c1ccccc1`
Result: > 100 µM

Query: # repeat for COCOCC[C@@H]1CC=CC(NC(=O)OCc2ccccc2)C1/C=C/C(=O)CCC1OCCO1 (stereo not given in full)
Result: > 100 µM

Query: # repeat for O=C1/C(=C/c2cccs2)NC(=S)N1CN1CCCC(CO)C1 (stereo not given)
Result: > 100 µM

Query: # repeat for O=C1C2ON3c4ccccc4C(=O)C3(c3ccccc3)C2C(=O)N1c1ccccc1 (stereo not given)
Result: > 100 µM

Query: # repeat for `O=S(=O)(Nc1ccc2ccccc2c1)c1ccc(-c2cnc(C3CC3)o2)cc1`
Result: > 100 µM

Query: # repeat for `CC(=O)O[C@H]1C(=O)[C@@]2(C)[C@H]([C@H](OC(=O)c3ccccc3)[C@@]3(O)C[C@H](O)C(C)=C1C3(C)C)[C@]1(OC(C)=O)CO[C@@H]1C[C@@H]2O`
Result: > 100 µM

Query: # repeat for CC(=O)N/C(=C\c1ccc(/C=C(\NC(C)=O)C2=NC3C(=O)c4ccccc4C(=O)C3N2)cc1)C1=NC2C(=O)c3ccccc3C(=O)C2N1 (stereo not given)
Result: > 100 µM

----------
tested on: SF-539 CNS; assay: NCI tumour cell line growth inhibition, 48 h; in the data active means GI50 below about 0.43 µM; inactive means the rest
Respond only with the outcome that fits, drawn from active, inactive

Consider the following illustrative entries.
CCOc1c(C#N)c2c(N)ncnc2n1C1OC(CO)C(O)C1O (centres undefined) | inactive
CN1CCN(Cc2ccc(NC(=O)c3cncc(C#Cc4cnn5ccccc45)c3)cc2C(F)(F)F)CC1 | inactive
CC[C@@H](C)Nc1cc(C(=O)NC2CC3CCC(C2)N3c2ccc(C(=O)C3CC3)cn2)c(C)cc1C(N)=O (some centres undefined) | active
O=C(Cn1c(C(=O)c2ccccc2)nc2ccccc21)c1ccc(F)cc1 | inactive
CC(C)CCC(=O)[C@@H](C)[C@H]1[C@@H](OC2OCC(O)C(O)C2NS(C)(=O)=O)C[C@H]2[C@@H]3CC=C4C[C@@H](O)CC[C@]4(C)[C@H]3CC[C@]12C (some centres undefined) | active

Query: State the result this test recorded for `O=C(Nc1ccc2c(c1)OCO2)C(=O)c1c[nH]c2cc(F)ccc12` .
Result: inactive

Query: # repeat for `CCc1nc2cc(/C=C/C(=O)NO)ccc2c(=O)n1CCc1ccc(F)cc1`
Result: inactive

Query: # repeat for `COc1ccc(CNc2cnc3cc(N)cc(N)c3n2)cc1`
Result: inactive

Query: # repeat for `O=C(Nc1nc(-c2ccc(Cl)cc2)nc2c1sc(=S)n2-c1ccccc1)C(F)(F)F`
Result: inactive

----------
A collection of molecules and their measured TGI
test system: MOLT-4 leukemia; experiment: NCI tumour cell line growth inhibition, 48 h
The response must be a number in µM with no trailing unit.

Answered examples (3):
N#Cc1c(N)nc(N2CCSCC2)c(C#N)c1-c1ccc(O)cc1 | 34.5
CC(=O)C1CCC2C3CC=C4CC(SC(=N)N)CCC4(C)C3CCC12C (stereo not drawn) | 4.19
COC(=O)C1=C(O)[C@H](C(=O)OC)[C@]2(O)[C@@H](C(=O)OC)[C@H]1C[C@@H](c1ccc(OC(=O)/C=C/c3ccco3)cc1)[C@@H]2C(=O)OC | 6.67

// switching to the query molecule
Query: # query: TGI of entry C=C1CC(CN2CCC(=O)NC2=O)(c2ccccc2)OC1=O (stereo not drawn)
Result: 7.9

----------
A collection of compounds and their measured TGI
test system: HS 578T breast; test: NCI tumour cell line growth inhibition, 48 h
Where a SMILES comes first, the peptide text is derived from it. [ ]: non-standard residue; d: D form. 2Nal = N[CH](Cc1ccc2ccccc2c1)C(=O)O

Answered examples (8):
CC(C)C(NC(=O)C(CCCCN)NC(=O)C(Cc1c[nH]c2ccccc12)NC(=O)C(Cc1ccc(O)cc1)NC(=O)C(CS)NC(=O)C(N)Cc1ccc2ccccc2c1)C(=O)NC(CS)C(=O)NC(C(N)=O)C(C)O (stereo not given) (H-[2Nal]CYWKVCT-NH2; configuration not given here) | > 12.5 µM
CCC(=O)NCCc1c2c3c(ccnc3c3ncsc13)-c1ccccc1N2 | 18.7 µM
CN(C)c1ccc(C2ON=C(c3ccccc3)N2C23CC4CC(CC(C4)C2)C3)cc1 (stereo not given) | > 10 µM
CCOC(=O)NC(Nc1ccc(Cl)cn1)(C(F)(F)F)C(F)(F)F | > 100 µM
COC(=O)c1cc(C)n(CN(Cc2ccccc2)Cn2nc(C(=O)OC)cc2C)n1 | > 100 µM
COc1ccc(/C=C2\CC(C)CC3C2=NN(c2ccccc2)C3c2ccc(OC)c(OC)c2)cc1OC (stereo not given) | > 100 µM
CC(=O)Oc1c(C)c2c(c3ccccc13)OC(C)(C)C2 | 53.9 µM
CC1=NN(C(=O)c2ccncc2)C(=O)C1N=Nc1ccc2ccccc2c1 (stereo not given) | > 100 µM

Query: Provide the documented TGI with HS 578T breast as the system for C=C1CC(CN2CCC(=O)NC2=O)(c2ccccc2)OC1=O (stereo not given)
Result: 34.6 µM

Query: # repeat for `Cc1cc(NNC(=O)c2ccccc2O)nc(Nc2nc3ccccc3o2)n1`
Result: 37.5 µM

Query: # repeat for `O=[N+]([O-])c1sc2ccc(Cl)cc2c1Nc1ccc(Cl)cc1`
Result: > 100 µM

Query: # repeat for `CC(C)CN(CC#N)CC(C)C`
Result: > 100 µM

Query: # repeat for `O=C(O)c1ccc(Nc2nc3cc(C(F)(F)F)ccc3nc2-c2ccccc2)cc1`
Result: 49.4 µM

Query: # repeat for `Cc1c(-c2ccccc2)c(C#N)c2nnn(-c3cccc(Cl)c3)c(=O)n12`
Result: > 100 µM

Query: # repeat for `CC(=O)Oc1c2oc3cc(O)c(O)cc3c2c(OC(C)=O)c2oc3cc(O)c(O)cc3c12`
Result: 36.4 µM

Query: # repeat for `CC(=O)N=C1N(/C=C2\C(=O)Oc3ccccc3C2=O)C(=O)/C(=C/c2ccccc2Cl)N1C`
Result: 34.9 µM

Query: # repeat for `CCN(CC)CCNc1ccc(C)c2sc3ccccc3c(=O)c12`
Result: 6.63 µM

Query: # repeat for O=C(O)CCC(NC(=O)c1ccc(CNc2nc3ccccc3nc2C(=O)O)cc1)C(=O)O (stereo not given)
Result: > 100 µM

Query: # repeat for `CCOC(=O)c1[nH]c2nc(SC)nc(Nc3ccccc3Cl)c2c1N`
Result: 61.8 µM

Query: # repeat for `CCOC(=O)c1csc(NC(=O)COc2cccc(/C=C3\CSc4ccccc4C3=O)c2)n1`
Result: 7.36 µM
